# System: Bel-7402
# method_summary: Cytotoxicity against human Bel7402 cells after 72 hrs by MTT assay
# Type: functional, cell-based
# assay_setup: Bel-7402, 72 h
pIC50: −log10 of the molar value.
metric: pIC50

Query string: For the molecule shown here, COc1ccc(C(=O)O[C@H]2[C@H](O[C@@H]3CO[C@@H](O[C@H]4C[C@H]5[C@@H]6CC=C7C[C@@H](O)CC[C@]7(C)[C@H]6CC[C@]5(C)[C@H]4[C@H](C)C(=O)CC[C@@H](C)CO)[C@H](OC(C)=O)[C@H]3O)OC[C@@H](O)[C@@H]2O)cc1 , give the reported pIC50.
Result string: < 5.00
